molecular target: hMC1-R (Homo sapiens, UniProt Q01726); construct: expressed in transfected cells; host or cells: CHO-K1; test: Radioligand binding assay, [125I]-NDP-α-MSH competition, CHO-K1 membranes; conditions: Table 5; read-out: Ki hMC1-R
Sequence (Q01726 whole entry): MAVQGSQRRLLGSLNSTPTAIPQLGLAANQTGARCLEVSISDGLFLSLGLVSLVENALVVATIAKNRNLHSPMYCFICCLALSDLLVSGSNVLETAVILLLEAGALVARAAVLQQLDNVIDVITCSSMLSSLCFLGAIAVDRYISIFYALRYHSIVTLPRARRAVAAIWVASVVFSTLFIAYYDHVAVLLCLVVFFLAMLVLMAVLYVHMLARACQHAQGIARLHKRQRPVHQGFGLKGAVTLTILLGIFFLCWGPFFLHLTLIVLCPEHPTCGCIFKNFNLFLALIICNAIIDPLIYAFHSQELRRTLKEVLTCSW
Bridge positions count the residues as written; N and C are the ends. Square brackets hold non-standard residues; d marks the D form. Peptide text beside a SMILES is read from it. βAla = NCCC(=O)O
metric.name: pKi
One number for each entry, as −log10 of the molar value.

>  <compound>
CCOc1ccc(C[C@H]2NC(=O)[C@H](Cc3c[nH]cn3)NC(=O)[C@@H](NC(=O)[C@H](N)Cc3ccccc3)CSSC[C@H](C(=O)N[C@H](C(N)=O)[C@@H](C)O)NC(=O)CCNC(=O)[C@H](Cc3c[nH]c4ccccc34)NC(=O)[C@H](CCCNC(=N)N)NC2=O)cc1 (H-[dF]CH[dY](Et)RW[βAla][dC]T-NH2; disulfide 2-8)

>  <pKi>
10.30

$$$$

List the reported pKi of each compound below.
1. C[C@@H](O)[C@H](NC(=O)[C@H]1CSSC[C@H](NC(=O)[C@H](N)Cc2ccccc2)C(=O)N[C@@H](Cc2c[nH]cn2)C(=O)N[C@H](Cc2ccccc2)C(=O)N[C@@H](CCCNC(=N)N)C(=O)N[C@@H](Cc2c[nH]c3ccccc23)C(=O)NCCC(=O)N1)C(N)=O (H-[dF]CH[dF]RW[βAla][dC]T-NH2; disulfide 2-8)
2. CCCC[C@H](NC(C)=O)C(=O)N[C@H]1CSSC[C@@H](C(N)=O)NC(=O)CCNC(=O)[C@@H](Cc2c[nH]c3ccccc23)NC(=O)[C@H](CCCNC(=N)N)NC(=O)[C@@H](Cc2ccccc2)NC(=O)[C@H](Cc2c[nH]cn2)NC1=O

1: 9.68; 2: 9.49

* * *

Can you tell me EC50 for the items I'm about to list?
target: hMC1-R (Homo sapiens); construct: expressed in transfected cells; host or cells: CHO-K1; experiment: cyclic AMP bioassay (ECL) in CHO-K1 cells; assay type: cell-based; settings: Table 9A/9B; read-out: EC50 hMC1-R
Bridge positions count the residues as written; N and C are the ends. Square brackets hold non-standard residues; d marks the D form. Peptide text beside a SMILES is read from it. Bip = N[C@@H](Cc1ccc(-c2ccccc2)cc1)C(=O)O; hArg = N=C(N)NCCCC[C@H](N)C(=O)O; Pen = CC(C)(S)[C@H](N)C(=O)O; GABA = NCCCC(=O)O; βAla = NCCC(=O)O
One number for each entry, in nM.

Solved cases (2 shown):
>  <compound>
CC(=O)N[C@H](CCCNC(=N)N)C(=O)N[C@H]1CSSC(C)(C)[C@@H](C(N)=O)NC(=O)CCCNC(=O)[C@H](Cc2c[nH]c3ccccc23)NC(=O)[C@H](CCCNC(=N)N)NC(=O)[C@@H](Cc2ccccc2)NC(=O)[C@H](Cc2c[nH]cn2)NC1=O (Ac-[dR]CH[dF]RW[GABA][Pen]-NH2; disulfide 2-8 (inferred))

>  <readout.units>
nM

>  <obs.value>
8.43

$$$$
>  <compound>
CCOc1ccc(C[C@H]2NC(=O)[C@H](Cc3c[nH]cn3)NC(=O)[C@@H](NC(=O)[C@H](N)Cc3ccccc3)CSSC[C@H](C(=O)N[C@H](C(N)=O)[C@@H](C)O)NC(=O)CCNC(=O)[C@H](Cc3ccc(-c4ccccc4)cc3)NC(=O)[C@H](CCCCNC(=N)N)NC2=O)cc1 (H-[dF]CH[dY](Et)[hArg][Bip][βAla][dC]T-NH2; disulfide 2-8)

>  <readout.units>
nM

>  <obs.value>
0.685

$$$$

Now consider a different compound.
Which EC50 is listed for "CCCC[C@H](NC(C)=O)C(=O)N[C@H]1CC(=O)NCCCC[C@@H](C(N)=O)NC(=O)CCCNC(=O)[C@H](Cc2c[nH]c3ccccc23)NC(=O)[C@H](CCCNC(=N)N)NC(=O)[C@@H](Cc2ccccc2)NC(=O)[C@H](Cc2c[nH]cn2)NC1=O" ? 1.37
